Test system: Plasmodium berghei
PROTOCOL: Antimalarial activity against Plasmodium berghei str. ANKA infected in Swiss albino mouse assessed as supression of parasitemia at 0.048 mmol/kg/day, po qd for 3 days by microscopic analysis relative to control
Type: functional
PROPERTY LABEL: Activity (%)
A number alone suffices; assume %.

Please review the following examples before continuing.
compound=O=C1CS/C(=N/N=C/c2cn(-c3ccc(Br)cc3)nc2-c2ccc([N+](=O)[O-])cc2)N1c1ccccc1 value=97.67
compound=Cc1ccc(-c2nn(-c3ccc(Br)cc3)cc2/C=C/C(=O)c2ccccc2)cc1 value=74.42
compound=Cc1ccc(-n2cc(/C=N/N=c3/scc(-c4ccc(Br)cc4)n3-c3ccccc3)c(-c3ccc([N+](=O)[O-])cc3)n2)cc1 value=74.42
compound="CC(=O)N(C1=NN(C(C)=O)C(c2cn(-c3ccc(C)cc3)nc2-c2ccc(C)cc2)S1)c1ccccc1 (stereo unspecified)" value=83.72
compound="CC(=O)N(C1=NN(C(C)=O)C(c2cn(-c3ccc(C)cc3)nc2-c2ccc([N+](=O)[O-])cc2)S1)c1ccccc1 (stereo unspecified)" value=79.07
compound="CCC(=O)N1N=C(c2ccccc2)CC1c1cn(-c2ccc(Br)cc2)nc1-c1ccc([N+](=O)[O-])cc1 (stereo unspecified)" value=60.47

Query :: Send back Plasmodium berghei Activity of `Cc1ccc(-n2cc(C=O)c(-c3ccc([N+](=O)[O-])cc3)n2)cc1` only.
Result :: 62.79

Query :: Send back Plasmodium berghei Activity of `Cc1ccc(-c2nn(-c3ccc(Br)cc3)cc2/C=N/N=c2/scc(-c3ccc(Br)cc3)n2-c2ccccc2)cc1` only.
Result :: 83.72

Query :: Send back Plasmodium berghei Activity of `Cc1ccc(-n2cc(/C=N/N=C3/SCC(=O)N3c3ccccc3)c(-c3ccc([N+](=O)[O-])cc3)n2)cc1` only.
Result :: 96.51

Query :: Send back Plasmodium berghei Activity of CC(=O)N1N=C(c2ccccc2)CC1c1cn(-c2ccc(Br)cc2)nc1-c1ccc(C)cc1 (stereo unspecified) only.
Result :: 96.51

Query :: Send back Plasmodium berghei Activity of Cc1ccc(-c2nn(-c3ccc(C)cc3)cc2C2CC(c3ccccc3)=NN2)cc1 (stereo unspecified) only.
Result :: 65.12

Query :: Send back Plasmodium berghei Activity of Cc1ccc(-c2nn(-c3ccc(Br)cc3)cc2C2CC(c3ccccc3)=NN2)cc1 (stereo unspecified) only.
Result :: 67.44

Query :: Send back Plasmodium berghei Activity of Cc1ccc(-c2nn(-c3ccc(C)cc3)cc2C2CC(c3ccccc3)=NN2c2ccccc2)cc1 (stereo unspecified) only.
Result :: 69.77

Query :: Send back Plasmodium berghei Activity of `Cc1ccc(-n2cc(/C=N/NC(=S)Nc3ccccc3)c(-c3ccc([N+](=O)[O-])cc3)n2)cc1` only.
Result :: 94.19

Query :: Send back Plasmodium berghei Activity of CC(=O)N1N=C(c2ccccc2)CC1c1cn(-c2ccc(Br)cc2)nc1-c1ccc([N+](=O)[O-])cc1 (stereo unspecified) only.
Result :: 69.77

Query :: Send back Plasmodium berghei Activity of O=[N+]([O-])c1ccc(-c2nn(-c3ccc(Br)cc3)cc2C2CC(c3ccccc3)=NN2)cc1 (stereo unspecified) only.
Result :: 95.35

Query :: Send back Plasmodium berghei Activity of `Cc1ccc(-c2nn(-c3ccc(C)cc3)cc2/C=N/N=C2/SCC(=O)N2c2ccccc2)cc1` only.
Result :: 88.37

Query :: Send back Plasmodium berghei Activity of CC(=O)N1N=C(c2ccccc2)CC1c1cn(-c2ccc(C)cc2)nc1-c1ccc(C)cc1 (stereo unspecified) only.
Result :: 79.07

Query :: Send back Plasmodium berghei Activity of `O=C(/C=C/c1cn(-c2ccc(Br)cc2)nc1-c1ccc([N+](=O)[O-])cc1)c1ccccc1` only.
Result :: 96.51

Query :: Send back Plasmodium berghei Activity of `Cc1ccc(-c2nn(-c3ccc(C)cc3)cc2/C=N/N=c2/scc(-c3ccc(Br)cc3)n2-c2ccccc2)cc1` only.
Result :: 97.67

Query :: Send back Plasmodium berghei Activity of CC(=O)N(C1=NN(C(C)=O)C(c2cn(-c3ccc(Br)cc3)nc2-c2ccc(C)cc2)S1)c1ccccc1 (stereo unspecified) only.
Result :: 86.05

Query :: Send back Plasmodium berghei Activity of CC(=O)N(C1=NN(C(C)=O)C(c2cn(-c3ccc(Br)cc3)nc2-c2ccc([N+](=O)[O-])cc2)S1)c1ccccc1 (stereo unspecified) only.
Result :: 86.05

* * *

Test system: Mus musculus
PROTOCOL: Toxicity in mouse up to 100 mg/kg administered via parenteral route
Assay type: organism-based
Design: dose 100 mg/kg
CONDITION DETAILS: in vivo
PROPERTY LABEL: Activity

compound=Cc1ccc(-c2nn(-c3ccc(C)cc3)cc2/C=N/N=c2/scc(-c3ccc(Br)cc3)n2-c2ccccc2)cc1 target_or_system="Mus musculus" value=Non-toxic
compound="CC(=O)N1N=C(c2ccccc2)CC1c1cn(-c2ccc(Br)cc2)nc1-c1ccc(C)cc1 (stereo not given)" target_or_system="Mus musculus" value=Non-toxic
compound="O=[N+]([O-])c1ccc(-c2nn(-c3ccc(Br)cc3)cc2C2CC(c3ccccc3)=NN2)cc1 (stereo not given)" target_or_system="Mus musculus" value=Non-toxic
compound=Cc1ccc(-c2nn(-c3ccc(Br)cc3)cc2/C=N/N=C2/SCC(=O)N2c2ccccc2)cc1 target_or_system="Mus musculus" value=Non-toxic
compound=O=[N+]([O-])c1ccc(-c2nn(-c3ccc(Br)cc3)cc2/C=N/NC(=S)Nc2ccccc2)cc1 target_or_system="Mus musculus" value=Non-toxic

Query :: Return Activity (reported value) for this compound: `Cc1ccc(-n2cc(/C=N/NC(=S)Nc3ccccc3)c(-c3ccc([N+](=O)[O-])cc3)n2)cc1`
Result :: Non-toxic

Query :: Return Activity (reported value) for this compound: `Cc1ccc(-n2cc(/C=N/N=C3/SCC(=O)N3c3ccccc3)c(-c3ccc([N+](=O)[O-])cc3)n2)cc1`
Result :: Non-toxic

* * *

System: Plasmodium berghei
PROTOCOL: Antimalarial activity against Plasmodium berghei str. ANKA infected in Swiss albino mouse assessed as parasitemia at 0.048 mmol/kg/day, po qd […] by microscopic analysis relative to control
Assay type: functional
Classification field. Basis: Activity. Definitions: low (below 10%), middle (10% to below 30%), high (30% or more)

# count of solved cases: 8
molecule="Cc1ccc(-c2nn(-c3ccc(Br)cc3)cc2C2CC(c3ccccc3)=NN2)cc1 (stereo not given)" group=middle
molecule=O=Cc1cn(-c2ccc(Br)cc2)nc1-c1ccc([N+](=O)[O-])cc1 group=high
molecule=Cc1ccc(-c2nn(-c3ccc(Br)cc3)cc2/C=C/C(=O)c2ccccc2)cc1 group=middle
molecule=Cc1ccc(-c2nn(-c3ccc(C)cc3)cc2/C=N/N=c2/scc(-c3ccc(Br)cc3)n2-c2ccccc2)cc1 group=low
molecule=Cc1ccc(-n2cc(C=O)c(-c3ccc([N+](=O)[O-])cc3)n2)cc1 group=high
molecule=Cc1ccc(-c2nn(-c3ccc(C)cc3)cc2C=O)cc1 group=high
molecule="O=[N+]([O-])c1ccc(-c2nn(-c3ccc(Br)cc3)cc2C2CC(c3ccccc3)=NN2)cc1 (stereo not given)" group=low
molecule=Cc1ccc(-c2nn(-c3ccc(Br)cc3)cc2/C=N/N=C2/SCC(=O)N2c2ccccc2)cc1 group=low

Query :: Classify this molecule: CCC(=O)N1N=C(c2ccccc2)CC1c1cn(-c2ccc(Br)cc2)nc1-c1ccc([N+](=O)[O-])cc1 (stereo not given)
Result :: high

Query :: Classify this molecule: `O=C(/C=C/c1cn(-c2ccc(Br)cc2)nc1-c1ccc([N+](=O)[O-])cc1)c1ccccc1`
Result :: low

Query :: Classify this molecule: CC(=O)N1N=C(c2ccccc2)CC1c1cn(-c2ccc(Br)cc2)nc1-c1ccc(C)cc1 (stereo not given)
Result :: low

Query :: Classify this molecule: Cc1ccc(-c2nn(-c3ccc(Br)cc3)cc2C2CC(c3ccccc3)=NN2c2ccccc2)cc1 (stereo not given)
Result :: middle

Query :: Classify this molecule: CCN(CC)CCCC(C)Nc1ccnc2cc(Cl)ccc12.O=P(O)(O)O.O=P(O)(O)O (stereo not given) [CHLOROQUINE PHOSPHATE]
Result :: low

Query :: Classify this molecule: `Cc1ccc(-c2nn(-c3ccc(C)cc3)cc2/C=C/C(=O)c2ccccc2)cc1`
Result :: middle

Query :: Classify this molecule: `Cc1ccc(-c2nn(-c3ccc(Br)cc3)cc2/C=N/N=c2/scc(-c3ccc(Br)cc3)n2-c2ccccc2)cc1`
Result :: middle

Query :: Classify this molecule: CC(=O)N1N=C(c2ccccc2)CC1c1cn(-c2ccc(C)cc2)nc1-c1ccc(C)cc1 (stereo not given)
Result :: middle

* * *

Attribute: Activity
Tested on: Plasmodium berghei
PROTOCOL: Antimalarial activity against Plasmodium berghei str. ANKA infected in Swiss albino mouse assessed as parasitemia at 0.048 mmol/kg/day, po qd […] by microscopic analysis relative to control
Format: functional
A number alone suffices; assume %.

Please review the following examples before continuing.
compound=Cc1ccc(-n2cc(/C=N/N=C3/SCC(=O)N3c3ccccc3)c(-c3ccc([N+](=O)[O-])cc3)n2)cc1 value=3
compound=O=C1CS/C(=N/N=C/c2cn(-c3ccc(Br)cc3)nc2-c2ccc([N+](=O)[O-])cc2)N1c1ccccc1 value=2
compound="CC(=O)N1N=C(c2ccccc2)CC1c1cn(-c2ccc(Br)cc2)nc1-c1ccc([N+](=O)[O-])cc1 (stereo not drawn)" value=26
compound="Cc1ccc(-c2nn(-c3ccc(C)cc3)cc2C2CC(c3ccccc3)=NN2c2ccccc2)cc1 (stereo not drawn)" value=26
compound="CC(=O)N(C1=NN(C(C)=O)C(c2cn(-c3ccc(C)cc3)nc2-c2ccc([N+](=O)[O-])cc2)S1)c1ccccc1 (stereo not drawn)" value=18

Query :: Return Activity (reported value) for this compound: CCC(=O)N1N=C(c2ccccc2)CC1c1cn(-c2ccc(Br)cc2)nc1-c1ccc(C)cc1 (stereo not drawn)
Result :: 42

Query :: Return Activity (reported value) for this compound: CC(=O)N(C1=NN(C(C)=O)C(c2cn(-c3ccc(Br)cc3)nc2-c2ccc([N+](=O)[O-])cc2)S1)c1ccccc1 (stereo not drawn)
Result :: 12

Query :: Return Activity (reported value) for this compound: CC(=O)N(C1=NN(C(C)=O)C(c2cn(-c3ccc(C)cc3)nc2-c2ccc(C)cc2)S1)c1ccccc1 (stereo not drawn)
Result :: 14

Where do the numbers come from? From ChEMBL document CHEMBL3414483.
